The values you see were collected from ChEMBL document CHEMBL2440036.

Reported Papp at 5 h, 10 µM is given for each of the following compounds.
Experiment: Apparent permeability of the compound at 10 uM after 5 hrs by PAMPA
Assay type: ADME

Query block: Which Papp at 5 h, 10 µM reading was recorded for the compound NCc1ccc(C(=O)Nc2ccncc2F)cc1-c1cccc(C(=O)O)c1 ?
Result block: < 0.01 ×10⁻⁶ cm/s

Here is another compound to look at.
Query block: Which Papp at 5 h, 10 µM reading was recorded for the compound NCc1ccc(C(=O)Nc2ccncc2)cc1-c1cccc(C(=O)O)c1 ?
Result block: < 0.01 ×10⁻⁶ cm/s

---

Experiment: Inhibition of ROCK in rat A7r5 cells assessed as inhibition of MLC phosphorylation by direct ELISA
Format: cell-based
pEC50: −log10 of the molar value.
reportedMetric: pEC50

Query block: Which pEC50 reading was recorded for the compound COC(=O)c1cccc(-c2cc(C(=O)Nc3ccncc3F)ccc2CN)c1 ?
Result block: 6.89

[I] C[C@@H](N)[C@H]1CC[C@H](C(=O)Nc2ccncc2)CC1 [Y-27632]
[II] NCc1ccc(C(=O)Nc2ccncc2F)cc1-c1cccc(C(=O)OCC2CCCC2)c1
[III] COC(=O)c1cccc(-c2cc(C(=O)Nc3ccncc3)ccc2CN)c1
[IV] NCc1ccc(C(=O)Nc2ccncc2F)cc1-c1cccc(C(=O)OCC2CCCO2)c1 (configuration not stated)
Query block: Arrange the 4 compounds by rising pEC50, starting with the smallest. Order the labels as requested and list them.
Result block: I, II, IV, III
(I: 6.70, II: 7.28, IV: 7.80, III: 8.10)

[P] CCCOC(=O)c1cccc(-c2cc(C(=O)Nc3ccncc3)ccc2CN)c1
[Q] COCCCOC(=O)c1cccc(-c2cc(C(=O)Nc3ccncc3)ccc2CN)c1
Query block: Given the listed items, does P or Q have the lesser reported pEC50? Reply briefly: the label of your chosen item.
Result block: Q

---

List of pIC50 tested on Rho-associated protein kinase 2 (Homo sapiens, UniProt O75116).
Sequence (O75116 whole entry): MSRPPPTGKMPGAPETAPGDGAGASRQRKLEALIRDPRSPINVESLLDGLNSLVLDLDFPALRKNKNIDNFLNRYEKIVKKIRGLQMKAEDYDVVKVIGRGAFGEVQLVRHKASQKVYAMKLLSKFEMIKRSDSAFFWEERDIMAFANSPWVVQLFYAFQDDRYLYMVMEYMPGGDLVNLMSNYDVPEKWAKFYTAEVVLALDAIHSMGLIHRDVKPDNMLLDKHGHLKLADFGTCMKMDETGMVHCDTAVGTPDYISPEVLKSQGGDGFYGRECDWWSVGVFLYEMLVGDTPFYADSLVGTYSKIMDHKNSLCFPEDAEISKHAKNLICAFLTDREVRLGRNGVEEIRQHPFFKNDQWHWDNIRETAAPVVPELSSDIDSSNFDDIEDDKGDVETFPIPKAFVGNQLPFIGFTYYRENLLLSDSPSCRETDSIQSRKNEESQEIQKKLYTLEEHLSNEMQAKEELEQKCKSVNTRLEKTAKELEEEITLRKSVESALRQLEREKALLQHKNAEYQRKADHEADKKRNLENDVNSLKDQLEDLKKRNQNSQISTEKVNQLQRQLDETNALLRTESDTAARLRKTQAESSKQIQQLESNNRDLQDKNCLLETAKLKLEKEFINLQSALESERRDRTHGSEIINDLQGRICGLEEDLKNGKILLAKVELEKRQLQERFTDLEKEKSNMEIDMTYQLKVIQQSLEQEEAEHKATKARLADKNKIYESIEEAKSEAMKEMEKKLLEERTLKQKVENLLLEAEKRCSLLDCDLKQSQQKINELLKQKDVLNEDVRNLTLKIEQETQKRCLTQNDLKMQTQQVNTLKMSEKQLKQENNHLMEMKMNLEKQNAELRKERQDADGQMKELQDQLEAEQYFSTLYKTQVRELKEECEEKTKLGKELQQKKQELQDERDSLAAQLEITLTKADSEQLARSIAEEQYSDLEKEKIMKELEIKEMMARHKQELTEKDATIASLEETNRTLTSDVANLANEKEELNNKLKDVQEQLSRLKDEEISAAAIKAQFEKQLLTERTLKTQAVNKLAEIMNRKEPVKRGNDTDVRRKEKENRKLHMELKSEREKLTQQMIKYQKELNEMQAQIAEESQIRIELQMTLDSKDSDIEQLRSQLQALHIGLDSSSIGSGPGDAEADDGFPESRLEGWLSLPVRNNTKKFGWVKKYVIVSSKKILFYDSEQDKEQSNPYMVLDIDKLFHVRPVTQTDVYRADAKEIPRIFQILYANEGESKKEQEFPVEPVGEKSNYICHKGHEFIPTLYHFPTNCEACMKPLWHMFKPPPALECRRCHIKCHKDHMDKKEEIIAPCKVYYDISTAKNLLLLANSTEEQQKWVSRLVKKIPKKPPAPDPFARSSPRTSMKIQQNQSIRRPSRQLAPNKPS
pIC50: −log10 of the molar value.
reportedMetric: pIC50

Query block: Which pIC50 reading was recorded for the compound NCc1ccc(C(=O)Nc2ccncc2F)cc1-c1cccc(C(=O)Oc2ccccc2)c1 ?
Result block: 8.21

Query block: Which pIC50 reading was recorded for the compound CC(C)OCCOC(=O)c1cccc(-c2cc(C(=O)Nc3ccncc3F)ccc2CN)c1 ?
Result block: 7.43

Query block: Which pIC50 reading was recorded for the compound CCCOC(=O)c1cccc(-c2cc(C(=O)Nc3ccncc3F)ccc2CN)c1 ?
Result block: 8.29

Query block: Which pIC50 reading was recorded for the compound NCc1ccc(C(=O)Nc2ccncc2F)cc1-c1cccc(C(=O)OCC2CCCO2)c1 (stereo not given) ?
Result block: 8.60

[A] COC(=O)c1cccc(-c2cc(C(=O)Nc3ccncc3)ccc2CN)c1
[B] NCc1ccc(C(=O)Nc2ccncc2F)cc1-c1cccc(C(=O)O)c1
Query block: Select the item with the higher value of pIC50 from the options A and B listed. Reply briefly: the label of your chosen item.
Result block: A
(A: 8.54, B: 7.26)

[A] NCc1ccc(C(=O)Nc2ccncc2)cc1-c1cccc(C(=O)O)c1
[B] CCCCOC(=O)c1cccc(-c2cc(C(=O)Nc3ccncc3)ccc2CN)c1
[C] NCc1ccc(C(=O)Nc2ccncc2F)cc1-c1cccc(C(=O)OCCO)c1
Query block: Parameters: sort_field (pIC50), sort_dir (desc). Order the labels as requested and list them.
Result block: C, B, A
(C: 8.85, B: 8.26, A: 6.78)

---

Assay: Half life in human plasma by LC-MS/MS analysis
Type: ADME, cell-free
reportedMetric: half-life (h)

Some compounds with recorded half-life:
Query block: Which half-life reading was recorded for the compound NCc1ccc(C(=O)Nc2ccncc2)cc1-c1cccc(C(=O)OCc2ccccc2)c1 ?
Result block: 1.07

Query block: Which half-life reading was recorded for the compound NCc1ccc(C(=O)Nc2ccncc2F)cc1-c1cccc(C(=O)OCC2CCCCO2)c1 (stereo not given) ?
Result block: 0.117

Query block: Which half-life reading was recorded for the compound COC(=O)c1cccc(-c2cc(C(=O)Nc3ccncc3)ccc2CN)c1 ?
Result block: 1.52

[I] CCCCCOC(=O)c1cccc(-c2cc(C(=O)Nc3ccncc3)ccc2CN)c1
[II] NCc1ccc(C(=O)Nc2ccncc2F)cc1-c1cccc(C(=O)OC2CCCOC2)c1 (stereo not given)
Query block: Given the listed items, does I or II have the lesser reported half-life? Reply briefly: the label of your chosen item.
Result block: II
(II: 0.3 h, I: 0.967 h)

[I] NCc1ccc(C(=O)Nc2ccncc2)cc1-c1cccc(C(=O)OCC2CCCCC2)c1
[II] COCCOC(=O)c1cccc(-c2cc(C(=O)Nc3ccncc3)ccc2CN)c1
Query block: Select the item with the higher value of half-life from the options I and II listed. Reply briefly: the label of your chosen item.
Result block: I
(I: 1.65 h, II: 0.2 h)

---

Test: Half life in human plasma by LC-MS/MS analysis
Assay type: ADME, cell-free
Reported half-life is given for each of the following compounds.

Some compounds with recorded half-life:
Query block: Which half-life reading was recorded for the compound NCc1ccc(C(=O)Nc2ccncc2)cc1-c1cccc(C(=O)OC2CCCCC2)c1 ?
Result block: > 2 h

Query block: Which half-life reading was recorded for the compound NCc1ccc(C(=O)Nc2ccncc2F)cc1-c1cccc(C(=O)O)c1 ?
Result block: > 2 h

Next:
Query block: Which half-life reading was recorded for the compound NCc1ccc(C(=O)Nc2ccncc2F)cc1-c1cccc(C(=O)OCC2CCCO2)c1 (stereo not drawn) ?
Result block: < 0.0833 h

---

Assay: Inhibition of ROCK in rat A7r5 cells assessed as inhibition of MLC phosphorylation by direct ELISA
Type: cell-based
reportedMetric: EC50 (nM)

Query block: Which EC50 reading was recorded for the compound CC(N)c1ccc(C(=O)Nc2ccncc2)cc1-c1ccc(F)cc1 (stereo not given) ?
Result block: 6.1

[I] COCCOC(=O)c1cccc(-c2cc(C(=O)Nc3ccncc3)ccc2CN)c1
[II] NCc1ccc(C(=O)Nc2ccncc2)cc1-c1cccc(C(=O)OCC2CCCC2)c1
Query block: Select the item with the higher value of EC50 from the options I and II listed. Reply briefly: the label of your chosen item.
Result block: I

---

Reported half-life is given for each of the following compounds.
Test: Half life in human plasma by LC-MS/MS analysis
Format: ADME, cell-free

Query block: Which half-life reading was recorded for the compound C[C@@H](N)[C@H]1CC[C@H](C(=O)Nc2ccncc2)CC1 ?
Result block: > 2 h

Query block: Which half-life reading was recorded for the compound CC(N)c1ccc(C(=O)Nc2ccncc2)cc1-c1ccc(F)cc1 (stereo not drawn) ?
Result block: > 2 h

Query block: Which half-life reading was recorded for the compound NCc1ccc(C(=O)Nc2ccncc2)cc1-c1cccc(C(=O)O)c1 ?
Result block: > 2 h
